Hey, just so you know, these numbers are from ChEMBL document CHEMBL1124476.

- Tested on: Rattus norvegicus
- Assay details: Mean excretion of chloride in conscious rats at a dose of 1.0 mg/kg given orally
- Format: ADME, organism-based
- Set-up: dose 1 mg/kg, route oral
- Test context: in vivo, po
Readout kind: Mean excretion of Cl-

| Compound | Readout kind | Val |
| --- | --- | --- |
| CSc1ccc2c(c1)C(c1ccccc1)=NCc1nnc(C(CN(C)C)c3ccccc3)n1-2 (centres undefined) | Mean excretion of Cl- | 0.89 m equiv |
| CN(C)CC(c1ccccc1)c1nnc2n1-c1ccc(Cl)cc1C(c1ccccc1)=NC2 (centres undefined) | Mean excretion of Cl- | 0.81 m equiv |
| CN(C)CCc1nnc2n1-c1ccc(Br)cc1C(c1ccccc1)=NC2 | Mean excretion of Cl- | 0.65 m equiv |
| COc1ccccc1C(CN(C)C)c1nnc2n1-c1ccc(Cl)cc1C(c1ccccc1)=NC2 (centres undefined) | Mean excretion of Cl- | 0.69 m equiv |

---

- Tested on: Rattus norvegicus
- Assay details: Mean excretion of sodium in conscious rats at a dose of 10 mg/kg given orally
- Format: ADME, organism-based
- Set-up: dose 10 mg/kg, route oral
- Test context: in vivo, po
# Lookup of reported Mean excretion of Na+ keyed by entry

| Compound | Readout unit | Mean excretion of Na+ |
| --- | --- | --- |
| CN(C)CC(c1ccccc1)c1nnc2n1-c1ccc(I)cc1C(c1ccccc1)=NC2 (stereo not given) | m equiv | 1.64 |
| I.NCC(c1ccccc1)c1nnc2n1-c1ccc(Cl)cc1C(c1ccccc1)=NC2 (stereo not given) | m equiv | 1.08 |
| COc1ccc(C(CN(C)C)c2nnc3n2-c2ccc(Cl)cc2C(c2ccccc2)=NC3)cc1 (stereo not given) | m equiv | 0.93 |
| CSc1ccc2c(c1)C(c1ccccc1)=NCc1nnc(C(CN(C)C)c3ccccc3)n1-2 (stereo not given) | m equiv | 1.39 |
| NS(=O)(=O)c1cc2c(cc1Cl)NCNS2(=O)=O [HYDROCHLOROTHIAZIDE] | m equiv | 1.86 |
| Nc1nc(N)c2nc(-c3ccccc3)c(N)nc2n1 | m equiv | 1 |
| CC1N=C(c2ccccc2)c2cc(Cl)ccc2-n2c1nnc2C(CN(C)C)c1ccccc1 (stereo not given) | m equiv | 1.33 |
| CN(C)CC(c1ccccc1Cl)c1nnc2n1-c1ccc(Cl)cc1C(c1ccccc1)=NC2 (stereo not given) | m equiv | 1.03 |
| COc1cccc(C(CN(C)C)c2nnc3n2-c2ccc(Cl)cc2C(c2ccccc2)=NC3)c1 (stereo not given) | m equiv | 1.13 |
| CN(C)CCc1nnc2n1-c1ccc(Br)cc1C(c1ccccn1)=NC2 | m equiv | 0.77 |
| CN(C)CC(c1ccccc1)c1nnc2n1-c1ccc(Br)cc1C(c1ccccc1)=NC2 (stereo not given) | m equiv | 0.74 |
| CN(C)CCc1nnc2n1-c1ccc(Br)cc1C(c1ccccc1)=NC2 | m equiv | 0.68 |
| COc1ccccc1C(CN(C)C)c1nnc2n1-c1ccc(Cl)cc1C(c1ccccc1)=NC2 (stereo not given) | m equiv | 0.72 |
| NS(=O)(=O)c1cc(C(=O)O)c(NCc2ccco2)cc1Cl [FUROSEMIDE] | m equiv | 1.13 |
| CN(C)CC(c1ccccc1)c1nnc2n1-c1ccc(Cl)cc1C(c1ccccc1)=NC2 (stereo not given) | m equiv | 1.15 |

---

- System: Rattus norvegicus
- Assay details: Mean excretion of sodium in conscious rats at a dose of 3.0 mg/kg given orally
- Format: ADME, organism-based
- Parameters: dose 3 mg/kg, route oral
- Test context: in vivo, po
Each record is given MET if its reported Mean excretion of Na+ is strictly below 0.8 m equiv. Records at or above 0.8 m equiv are given NOT MET.

| Compound | Answer label |
| --- | --- |
| CSc1ccc2c(c1)C(c1ccccc1)=NCc1nnc(C(CN(C)C)c3ccccc3)n1-2 (stereo not given) | NOT MET |
| COc1ccccc1C(CN(C)C)c1nnc2n1-c1ccc(Cl)cc1C(c1ccccc1)=NC2 (stereo not given) | MET |
| CN(C)CC(c1ccccc1)c1nnc2n1-c1ccc(Br)cc1C(c1ccccc1)=NC2 (stereo not given) | MET |
| COc1ccc(C(CN(C)C)c2nnc3n2-c2ccc(Cl)cc2C(c2ccccc2)=NC3)cc1 (stereo not given) | MET |
| CN(C)CC(c1ccccc1)c1nnc2n1-c1ccc(I)cc1C(c1ccccc1)=NC2 (stereo not given) | MET |
| NS(=O)(=O)c1cc(C(=O)O)c(NCc2ccco2)cc1Cl [FUROSEMIDE] | NOT MET |
| Nc1nc(N)c2nc(-c3ccccc3)c(N)nc2n1 | NOT MET |
| I.NCC(c1ccccc1)c1nnc2n1-c1ccc(Cl)cc1C(c1ccccc1)=NC2 (stereo not given) | MET |
| CC1N=C(c2ccccc2)c2cc(Cl)ccc2-n2c1nnc2C(CN(C)C)c1ccccc1 (stereo not given) | NOT MET |
| NS(=O)(=O)c1cc2c(cc1Cl)NCNS2(=O)=O [HYDROCHLOROTHIAZIDE] | NOT MET |

---

# Lookup of reported Mean excretion of Cl- keyed by entry
- System: Rattus norvegicus
- Assay details: Mean excretion of chloride in conscious rats at a dose of 10 mg/kg given orally
- Format: ADME, organism-based
- Set-up: dose 10 mg/kg, route oral
- Test context: in vivo, po

| Compound | Mean excretion of Cl- |
| --- | --- |
| CC1N=C(c2ccccc2)c2cc(Cl)ccc2-n2c1nnc2C(CN(C)C)c1ccccc1 (centres undefined) | 1.33 m equiv |
| CN(C)CCc1nnc2n1-c1ccc(Br)cc1C(c1ccccc1)=NC2 | 0.74 m equiv |
| CN(C)CC(c1ccccc1Cl)c1nnc2n1-c1ccc(Cl)cc1C(c1ccccc1)=NC2 (centres undefined) | 1.13 m equiv |
| CN(C)CCc1nnc2n1-c1ccc(Br)cc1C(c1ccccn1)=NC2 | 0.81 m equiv |

---

- Test system: Rattus norvegicus
- Assay details: Mean excretion of potassium in conscious rats at a dose of 100 mg/kg given orally
- Type: ADME, organism-based
- Parameters: dose 100 mg/kg, route oral
- Test context: in vivo, po
Readout kind: Mean excretion of K+ (m equiv)

| Molecule | Readout unit | Val |
| --- | --- | --- |
| CN(C)CCc1nnc2n1-c1ccc(Br)cc1C(c1ccccc1)=NC2 | m equiv | 0.27 |
| COc1ccc(C(CN(C)C)c2nnc3n2-c2ccc(Cl)cc2C(c2ccccc2)=NC3)cc1 (stereo not given) | m equiv | 0.26 |
| NS(=O)(=O)c1cc2c(cc1Cl)NCNS2(=O)=O [HYDROCHLOROTHIAZIDE] | m equiv | 0.36 |
| COc1cccc(C(CN(C)C)c2nnc3n2-c2ccc(Cl)cc2C(c2ccccc2)=NC3)c1 (stereo not given) | m equiv | 0.3 |
| CN(C)CC(c1ccccc1)c1nnc2n1-c1ccc(I)cc1C(c1ccccc1)=NC2 (stereo not given) | m equiv | 0.24 |

---

- Tested on: Rattus norvegicus
- Assay details: Mean excretion of sodium in conscious rats at a dose of 30 mg/kg given orally
- Type: ADME, organism-based
- Parameters: dose 30 mg/kg, route oral
- Test context: in vivo, po
# Lookup of reported Mean excretion of Na+ keyed by entry

| Molecule | Mean excretion of Na+ [m equiv] |
| --- | --- |
| CC1N=C(c2ccccc2)c2cc(Cl)ccc2-n2c1nnc2C(CN(C)C)c1ccccc1 (stereo not given) | 1.65 |
| CN(C)CC(c1ccccc1Cl)c1nnc2n1-c1ccc(Cl)cc1C(c1ccccc1)=NC2 (stereo not given) | 1.22 |
| NS(=O)(=O)c1cc2c(cc1Cl)NCNS2(=O)=O [HYDROCHLOROTHIAZIDE] | 1.86 |
| NS(=O)(=O)c1cc(C(=O)O)c(NCc2ccco2)cc1Cl [FUROSEMIDE] | 2.37 |
| CN(C)CCc1nnc2n1-c1ccc(Br)cc1C(c1ccccn1)=NC2 | 1.03 |
| Nc1nc(N)c2nc(-c3ccccc3)c(N)nc2n1 | 1.41 |
| CN(C)CCc1nnc2n1-c1ccc(Br)cc1C(c1ccccc1)=NC2 | 1 |
| CN(C)CC(c1ccccc1)c1nnc2n1-c1ccc(Br)cc1C(c1ccccc1)=NC2 (stereo not given) | 1.18 |
| CSc1ccc2c(c1)C(c1ccccc1)=NCc1nnc(C(CN(C)C)c3ccccc3)n1-2 (stereo not given) | 1.87 |
| COc1cccc(C(CN(C)C)c2nnc3n2-c2ccc(Cl)cc2C(c2ccccc2)=NC3)c1 (stereo not given) | 1.99 |

---

- Tested on: Rattus norvegicus
- Assay details: Mean excretion of chloride in conscious rats at a dose of 1.0 mg/kg given orally
- Type: ADME, organism-based
- Design: dose 1 mg/kg, route oral
- Test context: in vivo, po

| Compound | Mean excretion of Cl-, m equiv |
| --- | --- |
| CN(C)CCc1nnc2n1-c1ccc(Br)cc1C(c1ccccn1)=NC2 | 0.7 |
| CC1N=C(c2ccccc2)c2cc(Cl)ccc2-n2c1nnc2C(CN(C)C)c1ccccc1 (stereo not given) | 0.86 |
| CN(C)CC(c1ccccc1)c1nnc2n1-c1ccc(I)cc1C(c1ccccc1)=NC2 (stereo not given) | 0.7 |
| I.NCC(c1ccccc1)c1nnc2n1-c1ccc(Cl)cc1C(c1ccccc1)=NC2 (stereo not given) | 0.79 |
| COc1cccc(C(CN(C)C)c2nnc3n2-c2ccc(Cl)cc2C(c2ccccc2)=NC3)c1 (stereo not given) | 0.72 |
| Nc1nc(N)c2nc(-c3ccccc3)c(N)nc2n1 | 0.68 |
| NS(=O)(=O)c1cc2c(cc1Cl)NCNS2(=O)=O [HYDROCHLOROTHIAZIDE] | 1.77 |
| CN(C)CC(c1ccccc1)c1nnc2n1-c1ccc(Br)cc1C(c1ccccc1)=NC2 (stereo not given) | 0.62 |
| CN(C)CC(c1ccccc1Cl)c1nnc2n1-c1ccc(Cl)cc1C(c1ccccc1)=NC2 (stereo not given) | 0.93 |
| COc1ccc(C(CN(C)C)c2nnc3n2-c2ccc(Cl)cc2C(c2ccccc2)=NC3)cc1 (stereo not given) | 0.71 |
